Reference source for all entries: patent EP4635969A1

biological target: mineralocorticoid receptor (MR) (Homo sapiens, UniProt P08235); test: Assay for agonist activity on mineralocorticoid receptor (luciferase reporter, HEK293 cells transfected with pBIND-MR plasmid); format: cell-based; conditions: ratio of EC50 values
Sequence (P08235 726-984): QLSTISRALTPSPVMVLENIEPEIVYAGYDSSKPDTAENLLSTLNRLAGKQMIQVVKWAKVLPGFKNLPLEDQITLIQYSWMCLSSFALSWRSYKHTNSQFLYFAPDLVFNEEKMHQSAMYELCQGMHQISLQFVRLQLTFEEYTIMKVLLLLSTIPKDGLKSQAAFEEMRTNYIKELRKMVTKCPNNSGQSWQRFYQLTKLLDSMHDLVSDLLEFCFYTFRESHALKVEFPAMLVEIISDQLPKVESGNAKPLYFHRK
metric: Target selectivity MR/GR

Q: Given the entry C[C@]12C=CC(=O)C=C1[C@@H](F)C[C@H]1[C@@H]3C[C@H]4OC(c5ccc(CSC6CCOC6=O)cc5)O[C@@]4(C(=O)OCF)[C@@]3(C)C[C@H](O)[C@@]12F (stereo partly drawn) [Compound 36] , report its measured Target selectivity MR/GR.
Result: > 4.2×10^5

Q: Thanks! And C[C@]12C=CC(=O)C=C1[C@@H](F)C[C@H]1[C@@H]3C[C@H]4OC(c5ccc(NC(=O)C6COC(=O)C6)cc5)O[C@@]4(C(=O)SCF)[C@@]3(C)C[C@H](O)[C@@]12F (stereo partly drawn) [Compound 5] ?
Result: > 9560

Q: Thanks! And C[C@]12C=CC(=O)C=C1CC[C@H]1[C@@H]3C[C@H]4OC(C5CCC(SC6CCOC6=O)CC5)O[C@@]4(C(=O)CO)[C@@]3(C)C[C@H](O)[C@@]12F (stereo partly drawn) [Compound 45] ?
Result: > 3.1×10^4

Q: Thanks! And C[C@]12C=CC(=O)C=C1[C@@H](F)C[C@H]1[C@@H]3C[C@H]4OC(c5ccc(OCC6CCOC6=O)cc5)O[C@@]4(C(=O)CO)[C@@]3(C)C[C@H](O)[C@@]12F (stereo partly drawn) [Compound 13] ?
Result: > 1.4×10^4

Q: Thanks! And C[C@]12C=CC(=O)C=C1CC[C@H]1[C@@H]3C[C@H]4OC(c5ccc(COC6CCOC6=O)cc5)O[C@@]4(C(=O)CO)[C@@]3(C)C[C@H](O)[C@@]12F (stereo partly drawn) [Compound 16] ?
Result: > 1.2×10^5

Q: Thanks! And C[C@]12C=CC(=O)C=C1CC[C@H]1[C@@H]3C[C@H]4OC(c5ccc(SC6CCOC6=O)cc5)O[C@@]4(C(=O)CO)[C@@]3(C)C[C@H](O)[C@@]12F (stereo partly drawn) [Compound 41] ?
Result: > 8077

Q: Thanks! And C[C@]12C=CC(=O)C=C1[C@@H](F)C[C@H]1[C@@H]3C[C@H]4OC(c5ccc(C[S+]([O-])C6CCOC6=O)cc5)O[C@@]4(C(=O)CO)[C@@]3(C)C[C@H](O)[C@@]12F (stereo partly drawn) [Compound 55] ?
Result: > 3.8×10^4

Q: Thanks! And C[C@]12C=CC(=O)C=C1CC[C@H]1[C@@H]3C[C@H]4OC(c5ccc(CNC6CCOC6=O)cc5)O[C@@]4(C(=O)CO)[C@@]3(C)C[C@H](O)[C@@]12Cl (stereo partly drawn) [Compound 24] ?
Result: > 4.5×10^4

Q: Thanks! And C[C@]12C=CC(=O)C=C1[C@@H](F)C[C@H]1[C@@H]3C[C@H]4OC(c5ccc(CSC6CCOC6=O)cc5)O[C@@]4(C(=O)SCF)[C@@]3(C)C[C@H](O)[C@@]12F (stereo partly drawn) [Compound 34] ?
Result: > 5.0×10^5

Q: Thanks! And C[C@]12C=CC(=O)C=C1[C@@H](F)C[C@H]1[C@@H]3C[C@H]4OC(C5CCN(C(=O)C6COC(=O)C6)CC5)O[C@@]4(C(=O)SCF)[C@@]3(C)C[C@H](O)[C@@]12F (stereo partly drawn) [Compound 4] ?
Result: > 4223

Q: Thanks! And C[C@]12C=CC(=O)C=C1CC[C@H]1[C@@H]3C[C@H]4OC(c5ccc(CSC6CCOC6=O)cc5)O[C@@]4(C(=O)CO)[C@@]3(C)C[C@H](O)[C@@]12F (stereo partly drawn) [Compound 17] ?
Result: > 1.7×10^5

Q: Thanks! And C[C@]12C=CC(=O)C=C1[C@@H](F)C[C@H]1[C@@H]3C[C@H]4OC(c5ccc(CSC6CCOC6=O)cc5)O[C@@]4(C(=O)SCC#N)[C@@]3(C)C[C@H](O)[C@@]12F (stereo partly drawn) [Compound 35] ?
Result: > 2.4×10^5

Q: Thanks! And C[C@]12C=CC(=O)C=C1CC[C@H]1[C@@H]3C[C@H]4OC(c5cnc(CSC6CCOC6=O)nc5)O[C@@]4(C(=O)CO)[C@@]3(C)C[C@H](O)[C@@]12F (stereo partly drawn) [Compound 53] ?
Result: 6017

Q: Thanks! And C[C@]12C=CC(=O)C=C1[C@@H](F)C[C@H]1[C@@H]3C[C@H]4OC(c5ccc(CNC6CCOC6=O)cc5)O[C@@]4(C(=O)CO)[C@@]3(C)C[C@H](O)[C@@]12F (stereo partly drawn) [Compound 9] ?
Result: > 1.5×10^4

Q: Thanks! And C[C@]12C=CC(=O)C=C1CC[C@H]1[C@@H]3C[C@H]4OC(c5ccc(COC6CCOC6=O)cc5)O[C@@]4(C(=O)CO)[C@@]3(C)C[C@H](O)[C@@]12Cl (stereo partly drawn) [Compound 22] ?
Result: > 9.1×10^4

Q: Thanks! And C[C@]12C=CC(=O)C=C1CC[C@H]1[C@@H]3C[C@H]4OC(c5ccc(CSC6CCOC6=O)cc5)O[C@@]4(C(=O)CCl)[C@@]3(C)C[C@H](O)[C@@]12Cl (stereo partly drawn) [Compound 38] ?
Result: > 4.5×10^5

Q: Thanks! And C[C@]12C=CC(=O)C=C1CC[C@H]1[C@@H]3C[C@H]4OC(c5ccc(CNC6CCOC6=O)cc5)O[C@@]4(C(=O)CO)[C@@]3(C)C[C@H](O)[C@@]12F (stereo partly drawn) [Compound 18] ?
Result: > 3.1×10^4

Q: Thanks! And C[C@]12C=CC(=O)C=C1CC[C@H]1[C@@H]3C[C@H]4OC(c5ccc(CSC6CCOC6=O)cc5)O[C@@]4(C(=O)CO)[C@@]3(C)C[C@H](O)[C@@]12Cl (stereo partly drawn) [Compound 23] ?
Result: > 2.4×10^5

Q: Thanks! And C[C@]12C=CC(=O)C=C1[C@@H](F)C[C@H]1[C@@H]3C[C@H]4OC(c5ccc(COC6CCOC6=O)cc5F)O[C@@]4(C(=O)CO)[C@@]3(C)C[C@H](O)[C@@]12F (stereo partly drawn) [Compound 7] ?
Result: > 4.1×10^4

Q: Thanks! And C[C@]12C=CC(=O)C=C1CC[C@H]1[C@@H]3C[C@H]4OC(c5ccc(CSC6CCOC6=O)nc5)O[C@@]4(C(=O)CO)[C@@]3(C)C[C@H](O)[C@@]12F (stereo partly drawn) [Compound 47] ?
Result: > 1.5×10^5

Q: Thanks! And C[C@]12C=CC(=O)C=C1CC[C@H]1[C@@H]3C[C@H]4OC(c5ccc(CS(=O)(=O)C6CCOC6=O)cc5)O[C@@]4(C(=O)CO)[C@@]3(C)C[C@H](O)[C@@]12F (stereo partly drawn) [Compound 59] ?
Result: > 1.2×10^4
